Ref: ChEMBL document CHEMBL1153520

# test-protocol: Cmax in Beagle dog at 2 mg/kg, po
# Type: ADME, organism-based, Canis lupus familiaris
# Design: dose 2 mg/kg, route oral
# condition-details: in vivo
observed-property: Cmax

// query Cmax value for entry CC(C)n1c(=O)c(C(=O)N[C@H]2C[C@H]3CC[C@@H](C2)N3C[C@@H](O)CN2CCN(S(C)(=O)=O)CC2)cc2ccccc21 320 ng/mL

---

For each of the compounds below, state its Ki.
// units = nM; emit number, no label

Find the measured Ki: item CC(C)n1c(=O)c(C(=O)N[C@H]2C[C@H]3CC[C@@H](C2)N3CCS(=O)(=O)O)cc2ccccc21 , target or system 5-hydroxytryptamine receptor 4 (Homo sapiens, UniProt Q13639). 1000

Find the measured Ki: item CC(C)n1c(=O)c(C(=O)N[C@H]2C[C@H]3CC[C@@H](C2)N3CCN2CCCCC2)cc2ccccc21 , target or system 5-hydroxytryptamine receptor 4 (Homo sapiens, UniProt Q13639). 79.4

Find the measured Ki: item CC(C)n1c(=O)n(C(=O)N[C@H]2C[C@H]3CC[C@@H](C2)N3)c2ccccc21 , target or system 5-hydroxytryptamine receptor 4 (Homo sapiens, UniProt Q13639). 316

Find the measured Ki: item CC(C)n1c(=O)c(C(=O)N[C@H]2C[C@H]3CC[C@@H](C2)N3CCCCCN2C(=O)c3ccccc3C2=O)cc2ccccc21 , target or system 5-hydroxytryptamine receptor 4 (Homo sapiens, UniProt Q13639). 15.8

Find the measured Ki: item CC(C)n1c(=O)c(C(=O)N[C@H]2C[C@H]3CC[C@@H](C2)N3CCCCCN2CCN(S(C)(=O)=O)CC2)cc2ccccc21 , target or system 5-hydroxytryptamine receptor 4 (Homo sapiens, UniProt Q13639). 15.8

Find the measured Ki: item CC(C)n1c(=O)c(C(=O)N[C@H]2C[C@H]3CC[C@@H](C2)N3CCCCCCCCN2C(=O)c3ccccc3C2=O)cc2ccccc21 , target or system 5-hydroxytryptamine receptor 4 (Homo sapiens, UniProt Q13639). 31.6

Find the measured Ki: item CC(C)n1c(=O)c(C(=O)N[C@H]2C[C@H]3CC[C@@H](C2)N3CCCCCCCCN(C)CCc2c[nH]c3ccccc23)cc2ccccc21 , target or system 5-hydroxytryptamine receptor 4 (Homo sapiens, UniProt Q13639). 3.16

Find the measured Ki: item CC(C)n1nc(C(=O)NCC2CCNCC2)c2ccccc21 , target or system 5-hydroxytryptamine receptor 4 (Homo sapiens, UniProt Q13639). 7.94

Find the measured Ki: item CCCCCCCCN1[C@@H]2CC[C@H]1C[C@@H](NC(=O)c1cc3ccccc3n(C(C)C)c1=O)C2 , target or system 5-hydroxytryptamine receptor 4 (Homo sapiens, UniProt Q13639). 63.1

Find the measured Ki: item CC(C)n1c(=O)c(C(=O)N[C@H]2C[C@H]3CC[C@@H](C2)N3CCCN2CCN(c3ccccc3)CC2)cc2ccccc21 , target or system 5-hydroxytryptamine receptor 4 (Homo sapiens, UniProt Q13639). 7.94

Find the measured Ki: item CC(C)n1c(=O)c(C(=O)N[C@H]2C[C@H]3CC[C@@H](C2)N3CCCCCN(C)CCc2c[nH]c3ccccc23)cc2ccccc21 , target or system 5-hydroxytryptamine receptor 4 (Homo sapiens, UniProt Q13639). 3.16

Find the measured Ki: item COc1cc(N)c(Cl)cc1C(=O)NC1CCN(CCCCCN(C)CCc2c[nH]c3ccccc23)CC1 , target or system 5-hydroxytryptamine receptor 4 (Homo sapiens, UniProt Q13639). 1.58

Find the measured Ki: item COc1cc(N)c(Cl)cc1C(=O)NC1CCN(CCCCCCCCO)CC1 , target or system 5-hydroxytryptamine receptor 4 (Homo sapiens, UniProt Q13639). 79.4

Find the measured Ki: item CCN1[C@@H]2CC[C@H]1C[C@@H](NC(=O)c1cc3ccccc3n(C(C)C)c1=O)C2 , target or system 5-hydroxytryptamine receptor 4 (Homo sapiens, UniProt Q13639). 126

Find the measured Ki: item COc1cc(N)c(Cl)cc1C(=O)NC1CCN(CCN2CCCCC2)CC1 , target or system 5-hydroxytryptamine receptor 4 (Homo sapiens, UniProt Q13639). 251

Find the measured Ki: item COc1cc(N)c(Cl)cc1C(=O)NC1CCN(CCCCCCCCN2CCCCC2)CC1 , target or system 5-hydroxytryptamine receptor 4 (Homo sapiens, UniProt Q13639). 3.16

Find the measured Ki: item CCCCCN1[C@@H]2CC[C@H]1C[C@@H](NC(=O)c1cc3ccccc3n(C(C)C)c1=O)C2 , target or system 5-hydroxytryptamine receptor 4 (Homo sapiens, UniProt Q13639). 63.1

Find the measured Ki: item COc1cc(N)c(Cl)cc1C(=O)N[C@H]1C[C@H]2CC[C@@H](C1)N2 , target or system 5-hydroxytryptamine receptor 4 (Homo sapiens, UniProt Q13639). 158

Find the measured Ki: item COc1ccc2[nH]cc(C(=O)N[C@H]3C[C@H]4CC[C@@H](C3)N4)c2c1 , target or system 5-hydroxytryptamine receptor 4 (Homo sapiens, UniProt Q13639). 3160

Find the measured Ki: item CC(C)n1c(=O)c(C(=O)N[C@H]2C[C@H]3CC[C@@H](C2)N3CCCCCCCN2CCOCC2)cc2ccccc21 , target or system 5-hydroxytryptamine receptor 4 (Homo sapiens, UniProt Q13639). 2

Find the measured Ki: item CC(C)n1c(=O)c(C(=O)N[C@H]2C[C@H]3CC[C@@H](C2)N3CCCCCCCN2CCC(CNS(C)(=O)=O)CC2)cc2ccccc21 , target or system 5-hydroxytryptamine receptor 4 (Homo sapiens, UniProt Q13639). 2.51

Find the measured Ki: item CC(C)n1c(=O)c(C(=O)N[C@H]2C[C@H]3CC[C@@H](C2)N3CCCN(C)CCCN(C)S(C)(=O)=O)cc2ccccc21 , target or system 5-hydroxytryptamine receptor 4 (Homo sapiens, UniProt Q13639). 200

Find the measured Ki: item CC(C)n1c(=O)c(C(=O)N[C@H]2C[C@H]3CC[C@@H](C2)N3CCCN2CCC(CNS(C)(=O)=O)CC2)cc2ccccc21 , target or system 5-hydroxytryptamine receptor 4 (Homo sapiens, UniProt Q13639). 5.01

Find the measured Ki: item COc1cc(N)c(Cl)cc1C(=O)NC1CCN(CCCCCO)CC1 , target or system 5-hydroxytryptamine receptor 4 (Homo sapiens, UniProt Q13639). 63.1

Find the measured Ki: item CC(C)n1c(=O)c(C(=O)N[C@H]2C[C@H]3CC[C@@H](C2)N3CCCCCCCN2CCCCC2)cc2ccccc21 , target or system 5-hydroxytryptamine receptor 4 (Homo sapiens, UniProt Q13639). 2.51

Find the measured Ki: item CC(C)n1c(=O)c(C(=O)N[C@H]2C[C@H]3CC[C@@H](C2)N3CCCN2CCCCC2)cc2ccccc21 , target or system 5-hydroxytryptamine receptor 4 (Homo sapiens, UniProt Q13639). 6.31

Find the measured Ki: item CC(C)n1c(=O)c(C(=O)N[C@H]2C[C@H]3CC[C@@H](C2)N3CCCN2CCN(S(C)(=O)=O)CC2)cc2ccccc21 , target or system 5-hydroxytryptamine receptor 4 (Homo sapiens, UniProt Q13639). 39.8

Find the measured Ki: item CC(C)n1c(=O)c(C(=O)N[C@H]2C[C@H]3CC[C@@H](C2)N3CCCN2CCOCC2)cc2ccccc21 , target or system 5-hydroxytryptamine receptor 4 (Homo sapiens, UniProt Q13639). 39.8

Find the measured Ki: item CC(C)n1c(=O)c(C(=O)N[C@H]2C[C@H]3CC[C@@H](C2)N3CCN2C(=O)c3ccccc3C2=O)cc2ccccc21 , target or system 5-hydroxytryptamine receptor 4 (Homo sapiens, UniProt Q13639). 1000

Find the measured Ki: item CC(C)n1c(=O)n(C(=O)NCCN2CCNCC2)c2ccccc21 , target or system 5-hydroxytryptamine receptor 4 (Homo sapiens, UniProt Q13639). 126

Find the measured Ki: item COc1ccc2[nH]cc(C(=O)NCCN3CCNCC3)c2c1 , target or system 5-hydroxytryptamine receptor 4 (Homo sapiens, UniProt Q13639). 316

Find the measured Ki: item CC(C)n1c(=O)c(C(=O)N[C@H]2C[C@H]3CC[C@@H](C2)N3CCCN2CCC[C@@H]2C(N)=O)cc2ccccc21 , target or system 5-hydroxytryptamine receptor 4 (Homo sapiens, UniProt Q13639). 50.1

Find the measured Ki: item CC(C)n1c(=O)c(C(=O)N[C@H]2C[C@H]3CC[C@@H](C2)N3CCCCCCCCN2CCCCC2)cc2ccccc21 , target or system 5-hydroxytryptamine receptor 4 (Homo sapiens, UniProt Q13639). 3.16
